Recorded IC50 values for a group of binders are listed next.
target: T1, GST-MDM2 containing full-length human MDM2 (human, UniProt Q00987 1-491); experiment: competition ELISA: peptide + GST-MDM2 on plated His6-p53
T1 construct: mature; Expressed in E. coli and purified on glutathione-agarose; also called GST-HDM2; not shown: GST tag
T1 sequence (Q00987 whole entry): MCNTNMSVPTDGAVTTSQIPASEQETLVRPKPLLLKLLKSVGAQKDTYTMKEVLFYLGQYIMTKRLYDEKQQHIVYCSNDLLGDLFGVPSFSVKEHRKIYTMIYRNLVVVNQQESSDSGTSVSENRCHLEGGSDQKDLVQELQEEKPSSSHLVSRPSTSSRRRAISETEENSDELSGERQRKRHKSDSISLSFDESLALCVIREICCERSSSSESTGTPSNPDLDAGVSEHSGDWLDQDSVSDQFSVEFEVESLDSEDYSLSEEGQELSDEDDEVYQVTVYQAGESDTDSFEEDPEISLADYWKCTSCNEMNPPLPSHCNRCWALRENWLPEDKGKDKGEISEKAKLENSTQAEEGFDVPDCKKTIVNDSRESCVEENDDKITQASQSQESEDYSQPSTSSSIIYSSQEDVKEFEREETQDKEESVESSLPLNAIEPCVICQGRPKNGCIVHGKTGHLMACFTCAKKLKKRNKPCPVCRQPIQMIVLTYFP
Bridges are numbered along the chain shown (N, C = ends). [ ]: non-standard residue; d: D form. code β = tetrazole-bearing lysine Lys(tetrazole), tetrazole half of pyrazoline cross-linker; L3 = not defined here
MEASUREMENT KIND: IC50

INSERT INTO measurements (binder, assay_result) VALUES
  ('Ac-LTFXHYWXQLTS-NH2 (bridge 4-8 via L3; not fully specified (residues 4, 8); printed as LTFαHYWβQLTS, Stapled peptide) [sPDI-4]', '87 nM'),
  ('Ac-TSFXQYW[code β]RLRP-NH2 (bridge 4-8; not fully specified (residue 4, bridges); printed as TSFαQYWβRLRP; also: pyrazoline cross-linker L3 between α and β, Stapled peptide) [sPMI-5]', '597 nM'),
  ('Ac-TSFAXYWNXLSP-NH2 (bridge 5-9 via L3; not fully specified (residues 5, 9); printed as TSFAαYWNβLSP; also: pyrazoline cross-linker L3 between α and β, Stapled peptide) [sPMI-2]', '1080 nM');
